Quick list: protein stability index per entry.
tested on: Saccharomyces cerevisiae; assay: protein stability index of tFT-peptide fusion (C-terminal peptide) (PSI (0-1 scale)); higher = more stable (slower turnover); conditions: genetic background: wild type; temperature: 30 C

SEQUENCE_DATA: LLEDQVPVETKA [PYC1 C-terminal 12 aa]
protein stability index: 0.582
//
SEQUENCE_DATA: IEKADIVQQAIR [SLP1 C-terminal 12 aa]
protein stability index: 0.66
//
SEQUENCE_DATA: TIPAAKRTKPSA [LYS20 C-terminal 12 aa]
protein stability index: 0.703
//
SEQUENCE_DATA: PLTRFHSCPITA [ECM13 C-terminal 12 aa]
protein stability index: 0.301
//
SEQUENCE_DATA: KLKRAKRKGISE [IMP21 C-terminal 12 aa]
protein stability index: 0.692
//
SEQUENCE_DATA: DVYVLFYERVYD [UBP7 C-terminal 12 aa]
protein stability index: 0.682
//
SEQUENCE_DATA: SSGCRRLMVGYN [ERC1 C-terminal 12 aa]
protein stability index: 0.684
//
SEQUENCE_DATA: ENNEKFLNIRLY [CDC24 C-terminal 12 aa]
protein stability index: 0.668
//
SEQUENCE_DATA: KQQSWLRRVIGY [ENB1 C-terminal 12 aa]
protein stability index: 0.688
//
SEQUENCE_DATA: EVAKSLTLQYDV [CNB1 C-terminal 12 aa]
protein stability index: 0.68
//
SEQUENCE_DATA: DLIESTFRSITQ [PAN3 C-terminal 12 aa]
protein stability index: 0.705
//
SEQUENCE_DATA: RLVRNVELSKEK [MTD1 C-terminal 12 aa]
protein stability index: 0.718

The reported numbers originate from the supplement of paper PMC10724198.
